Cited source for all entries: the METLIN SMRT retention time set (Domingo-Almenara et al. 2019)

ASSAY_REMARKS: gradient 5% acetonitrile 3 min, to 50% in 2 min, to 85% in 15 min, held 3 min, 100 µL/min
EXPERIMENTAL_CONDITIONS: column: Zorbax Extend-C18 2.1 x 50 mm; eluents: water / acetonitrile, 0.1% formic acid
Binarize RP-LC retention time at 700 s; below is class 1, at or above is class 0.

Solved entries:
Asked: Does O=C(Cc1ccccc1)N1[C@H]2CC[C@@H]1c1cnc(-c3ccccc3)nc1C2 have RP-LC retention time strictly under 700 s?
Given back: class 0

Asked: Does CN1CCN(CC2CCC3(CCN(S(=O)(=O)c4ccc(C(C)(C)C)cc4)CC3)O2)CC1 (centres undefined) have RP-LC retention time strictly under 700 s?
Given back: class 1

Asked: Does COc1ccc(NC(=O)c2nnc(C(=O)NCCc3c[nH]c4ccc(OC)cc34)s2)cc1 have RP-LC retention time strictly under 700 s?
Given back: class 0

Asked: Does Cc1cc(C)cc(NC(=O)Nc2ccc3nc(N4CCN(C)CC4)cc(C)c3c2)c1 have RP-LC retention time strictly under 700 s?
Given back: class 1

Asked: Does CCOc1ccc(C2Cn3nnc(-c4nc(-c5ccccc5C)no4)c3CO2)cc1 (centres undefined) have RP-LC retention time strictly under 700 s?
Given back: class 0

Attention now shifts to the item below.
Asked: Does Cc1ccccc1OCC(=O)N1CC2CN(S(=O)(=O)c3ccc(F)cc3)CC(C1)O2 have RP-LC retention time strictly under 700 s?
Given back: class 0

====

ASSAY_REMARKS: gradient 5% acetonitrile 3 min, to 50% in 2 min, to 85% in 15 min, held 3 min, 100 µL/min
EXPERIMENTAL_CONDITIONS: column: Zorbax Extend-C18 2.1 x 50 mm; eluents: water / acetonitrile, 0.1% formic acid
Readings of RP-LC retention time for the listed molecules
Supply the numeric figure in s, leaving out any unit text.

See these solved cases before continuing.
Lab book: RP-LC retention time of COc1ccc(-c2noc(-c3nn(-c4ccc(C)cc4)ccc3=O)n2)cc1 noted as 919

Lab book: RP-LC retention time of Cc1ccc(NC(=O)Cn2c(C)nc3onc(C)c3c2=O)cc1C noted as 756

Lab book: RP-LC retention time of CCN(Cc1ccccc1)C(=O)CN1C(=O)C2CCCCN2c2ccc(C(=O)N3CCCC3)cc21 (centres undefined) noted as 892

Lab book: RP-LC retention time of COc1ccccc1OCCNC(=O)C1CC(=O)N(c2n[nH]c3cccc(F)c23)C1 (centres undefined) noted as 688

Lab book: RP-LC retention time of Cc1cc(=O)n(CC(=O)Nc2ccc(F)c(F)c2)c(N2CCOCC2)n1 noted as 687

Lab book: RP-LC retention time of Cc1cccc(Sc2nccnc2N2CCCC(C(=O)NCCN3CCOCC3)C2)c1 (centres undefined) noted as 686

Lab book: RP-LC retention time of COc1ccc(-c2nc3ncc4c(=O)n(CCc5ccc(OC)c(OC)c5)ccc4n3n2)cc1 noted as 854

Lab book: RP-LC retention time of CCCCNC(=O)C1CCN(Cc2cc3ccccc3n2Cc2ccccc2Cl)CC1 noted as 788

Lab book: RP-LC retention time of Cc1ccc(CNC(=O)C2CCN(S(=O)(=O)c3ccc4c(c3)CCCC(=O)N4)CC2)cc1 noted as 752

Lab book: RP-LC retention time of COc1cccc(-n2c(N3CCCC(C(=O)NCc4cccs4)C3)nc3ccsc3c2=O)c1 (centres undefined) noted as 822

Further cases:
Lab book: RP-LC retention time of CC1=C(c2cccc(Cl)c2)S(=O)(=O)N=C1N1CCCN(C(=O)c2cccs2)CC1 noted as 860

Lab book: RP-LC retention time of Cc1ccn2cc(-c3ccc(NC(=O)c4ccc(Br)cc4)cc3)nc2n1 noted as 698

Lab book: RP-LC retention time of COc1ccc(Cn2nc3c(S(=O)(=O)N4CCc5ccccc5C4)cccn3c2=O)cc1 noted as 946

Lab book: RP-LC retention time of Cc1ccc(-c2n[nH]c(CCNC(=O)c3ccc(S(=O)(=O)N4CCOCC4)cc3)n2)cc1 noted as 704

Lab book: RP-LC retention time of COc1ccc(S(=O)(=O)N2C[C@H]3CN(C(=O)Nc4ccccc4C)C[C@@H](C2)O3)cc1 noted as 771

Lab book: RP-LC retention time of CCCCOc1ccc(CNC(=O)C2CCN(C(=O)c3cc4ccsc4[nH]3)CC2)cc1 noted as 937

====

ASSAY_REMARKS: gradient 5% acetonitrile 3 min, to 50% in 2 min, to 85% in 15 min, held 3 min, 100 µL/min
EXPERIMENTAL_CONDITIONS: column: Zorbax Extend-C18 2.1 x 50 mm; eluents: water / acetonitrile, 0.1% formic acid
VALUE_KIND: RP-LC retention time
Phrase the answer as number then unit, nothing more needed.

Lab book: RP-LC retention time of COc1cc2c(cc1OC)C(C(=O)NC1CCCCC1)C(c1cccnc1)N(C)C2=O (stereo not given) noted as 994 s

Lab book: RP-LC retention time of COCCn1cc(CCNC(=O)c2cncc(Br)c2)c2cccnc21 noted as 678 s

Lab book: RP-LC retention time of COc1ccc(OC)c(NC(=O)C2CCN(c3cc(N4CCSCC4)ncn3)CC2)c1 noted as 694 s

Further cases:
Lab book: RP-LC retention time of O=C(NC1CC1)[C@@H]1OCCN(C2CC2)[C@H]1c1ccccc1 noted as 572 s

Lab book: RP-LC retention time of Cn1c(CNC(=O)C2CCc3nc(N4CCCC4)ncc3C2)nc2ccccc21 (stereo not given) noted as 529 s

====

ASSAY_REMARKS: gradient 5% acetonitrile 3 min, to 50% in 2 min, to 85% in 15 min, held 3 min, 100 µL/min
EXPERIMENTAL_CONDITIONS: column: Zorbax Extend-C18 2.1 x 50 mm; eluents: water / acetonitrile, 0.1% formic acid
Please use Condition met whenever RP-LC retention time is not below 900 s, and Condition not met whenever it is.

Asked: # bool: RP-LC retention time of O=C(Nc1cccc(Cl)c1F)N1CCC(N2CC(F)(F)C[C@H]2COCC2CC2)CC1 >= 900 s
Given back: Condition not met

Asked: # bool: RP-LC retention time of CCCn1c(=O)sc2cc(S(=O)(=O)N3CCC(C(=O)Nc4ccc(F)c(F)c4)CC3)ccc21 >= 900 s
Given back: Condition met

Asked: # bool: RP-LC retention time of CCOC(=O)c1c(S(=O)(=O)N2CCC(C(=O)Nc3ccc(CC)cc3)CC2)c(C)n(CC)c1C >= 900 s
Given back: Condition met

Asked: # bool: RP-LC retention time of CCOc1ccc(-c2csc(NC(=O)CCCOc3ccc(OC)cc3)n2)cc1 >= 900 s
Given back: Condition met

====

ASSAY_REMARKS: gradient 5% acetonitrile 3 min, to 50% in 2 min, to 85% in 15 min, held 3 min, 100 µL/min
EXPERIMENTAL_CONDITIONS: column: Zorbax Extend-C18 2.1 x 50 mm; eluents: water / acetonitrile, 0.1% formic acid
Readings of RP-LC retention time for the listed compounds
Supply the numeric figure in s, leaving out any unit text.

See these solved cases before continuing.
Lab book: RP-LC retention time of COC(=O)Nc1ccc(CC(=O)NCc2cccs2)cc1 noted as 662

Lab book: RP-LC retention time of COc1ccc(-c2noc(C3CCCN3C(=O)c3ccc(N(C)C)cc3)n2)cc1OC (stereo not given) noted as 881

Lab book: RP-LC retention time of Cc1ccc(S(=O)(=O)CCc2noc(C(=O)NCCN3CCC(C)CC3)n2)cc1 noted as 631

Lab book: RP-LC retention time of N#Cc1ccc(CN2C[C@@H]3C(=O)N(CCN4CCc5ccccc5C4)C(=O)[C@@H]3C2)cc1 noted as 618

We next turn to a different compound, shown below.
Lab book: RP-LC retention time of COc1ccc(NC(=O)C(C)C2CCN(C(=O)Nc3ccccc3)CC2)c(OC)c1 (stereo not given) noted as 810

====

ASSAY_REMARKS: gradient 5% acetonitrile 3 min, to 50% in 2 min, to 85% in 15 min, held 3 min, 100 µL/min
EXPERIMENTAL_CONDITIONS: column: Zorbax Extend-C18 2.1 x 50 mm; eluents: water / acetonitrile, 0.1% formic acid
VALUE_KIND: RP-LC retention time (s)
Supply the numeric figure in s, leaving out any unit text.

See these solved cases before continuing.
Lab book: RP-LC retention time of CCCN1C(=O)COc2ccc(-c3noc(-c4cccc(Cl)c4)n3)cc21 noted as 1350

Lab book: RP-LC retention time of CCOC(=O)c1[nH]c(C)c(C(=O)C(C)N(C(=O)c2ccc(Cl)cc2)C2CC2)c1C (centres undefined) noted as 978

Lab book: RP-LC retention time of COC(=O)c1cnc(N2CCN(c3cccc(C)c3)C(C)C2)c2ccccc12 (centres undefined) noted as 1040

Lab book: RP-LC retention time of O=C(Cn1ccc2ccccc21)N1CCN(c2ccc(-c3ccccn3)nn2)CC1 noted as 652

Lab book: RP-LC retention time of O=C(CN1CCN(Cc2ccccc2Cl)CC1)Nc1nc(-c2ccccc2)cs1 noted as 747

Further cases:
Lab book: RP-LC retention time of CCOc1ccccc1NC(=O)N1CCC(C)(C(=O)NCc2ccc(F)cc2)CC1 noted as 906

Lab book: RP-LC retention time of COc1ccccc1N1CCN(CC(O)COc2cccc3ccccc23)CC1 (centres undefined) noted as 838

Lab book: RP-LC retention time of COc1ccc(Cc2nc3nccc(-c4cccs4)n3n2)cc1 noted as 871

Lab book: RP-LC retention time of O=C(Nc1ccccc1Cl)N1CCC(N2CCN(Cc3ccccc3)C(=O)C2=O)CC1 noted as 867
